Reported pKi values are given for each entry in this list.
- system.name: 5-hydroxytryptamine receptor 1B (Rattus norvegicus, UniProt P28564)
- Sequence (P28564 whole entry): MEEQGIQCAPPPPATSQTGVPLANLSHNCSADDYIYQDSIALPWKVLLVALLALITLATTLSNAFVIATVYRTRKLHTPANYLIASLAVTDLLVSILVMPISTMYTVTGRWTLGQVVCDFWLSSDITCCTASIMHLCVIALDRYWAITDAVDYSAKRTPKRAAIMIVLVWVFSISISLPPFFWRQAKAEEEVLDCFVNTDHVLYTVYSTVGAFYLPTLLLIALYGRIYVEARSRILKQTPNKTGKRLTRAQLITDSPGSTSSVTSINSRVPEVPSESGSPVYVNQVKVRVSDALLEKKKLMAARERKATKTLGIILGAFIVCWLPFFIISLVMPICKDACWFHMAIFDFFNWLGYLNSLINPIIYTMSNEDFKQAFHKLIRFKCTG
pKi: −log10 of the molar value.

| molecule | relation.qualifier | pKi |
| --- | --- | --- |
| CC(C)NCC(O)c1ccc(NS(C)(=O)=O)cc1 (racemic) [Sotalol,(-)] | < | 5.00 |
| CC(CCc1ccccc1)NCC(O)c1ccc(O)c(C(N)=O)c1 (centres undefined) | = | 5.70 |
| C=CCc1ccccc1OC[C@@H](O)CNC(C)C [ALPRENOLOL,(-)] | = | 7.15 |
| CC(C)NC[C@H](O)COc1ccc(CCOCC2CC2)cc1 | < | 5.00 |
| Cc1ccc(OC[C@@H](O)[C@H](C)NC(C)C)c2c1CCC2 | = | 5.41 |
| CC(=O)Nc1ccc(OCC(O)CNC(C)C)cc1 (stereo not drawn) [Practolol,(-)] | < | 5.00 |
| COc1ccc(OC)c([C@@H](O)[C@H](C)NC(C)(C)C)c1 | < | 5.00 |
| C=CCOc1ccccc1OCC(O)CNC(C)C (centres undefined) | = | 6.76 |
| COCCc1ccc(OCC(O)CNC(C)C)cc1 (centres undefined) | < | 5.00 |

====

Please consider the recorded pKi for UniProt:P10608 in what follows.
Sequence (P10608 whole entry): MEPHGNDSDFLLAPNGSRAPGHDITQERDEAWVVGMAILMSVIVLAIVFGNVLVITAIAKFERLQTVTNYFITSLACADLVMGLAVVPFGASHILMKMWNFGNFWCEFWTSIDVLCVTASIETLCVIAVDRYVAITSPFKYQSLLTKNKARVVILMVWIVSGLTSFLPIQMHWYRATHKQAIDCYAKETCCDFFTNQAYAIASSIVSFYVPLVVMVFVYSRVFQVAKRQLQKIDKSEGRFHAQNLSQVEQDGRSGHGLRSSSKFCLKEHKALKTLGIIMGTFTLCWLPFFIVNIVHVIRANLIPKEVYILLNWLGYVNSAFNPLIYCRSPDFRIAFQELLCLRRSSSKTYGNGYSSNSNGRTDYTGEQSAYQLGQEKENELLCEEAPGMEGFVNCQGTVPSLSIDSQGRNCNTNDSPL
pKi: −log10 of the molar value.
measurement.name: pKi

| compound | measurement.name | readout.value |
| --- | --- | --- |
| COc1ccc(OC)c([C@@H](O)[C@H](C)NC(C)(C)C)c1 | pKi | 6.33 |
| CC(C)(C)NCC(O)CSc1nc(-c2ccc(C(N)=O)s2)cs1 (stereo not drawn) | pKi | 9.26 |
| C=CCOc1ccccc1OCC(O)CNC(C)C (stereo not drawn) | pKi | 8.01 |

====

- system.name: Beta-1 adrenergic receptor (Rattus norvegicus)
- Sequence (P18090 whole entry): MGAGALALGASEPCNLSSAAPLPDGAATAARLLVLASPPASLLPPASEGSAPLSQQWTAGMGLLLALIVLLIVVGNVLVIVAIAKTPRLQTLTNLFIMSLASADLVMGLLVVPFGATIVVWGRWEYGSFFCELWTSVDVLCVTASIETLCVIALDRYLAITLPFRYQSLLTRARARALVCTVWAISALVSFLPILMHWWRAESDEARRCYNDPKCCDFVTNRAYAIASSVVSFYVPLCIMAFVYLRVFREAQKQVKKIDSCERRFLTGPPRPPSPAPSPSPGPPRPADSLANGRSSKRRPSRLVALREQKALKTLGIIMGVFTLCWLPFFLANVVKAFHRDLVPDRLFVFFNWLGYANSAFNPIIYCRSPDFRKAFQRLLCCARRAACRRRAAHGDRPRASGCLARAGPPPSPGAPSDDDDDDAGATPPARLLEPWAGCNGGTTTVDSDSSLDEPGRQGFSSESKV
Cut-off 200 nM on Ki: below means rule met, at or above means rule not met.

| compound | label |
| --- | --- |
| CC(C)NCC(O)COc1cccc2[nH]ccc12 (stereo unspecified) [LB-46] | rule met |
| COc1ccc(OC)c([C@@H](O)[C@H](C)NC(C)(C)C)c1 [CAS_1937-89-9] | rule not met |
| CC(CCc1ccccc1)NCC(O)c1ccc(O)c(C(N)=O)c1 (stereo unspecified) | rule met |
| CC(C)(C)NCC(O)CSc1nc(-c2ccc(C(N)=O)s2)cs1 (stereo unspecified) [CAS_52560-77-7] | rule met |
| CC(=O)Nc1ccc(OCC(O)CNC(C)C)cc1 (stereo not drawn) [Practolol,(-)] | rule not met |
